systemName: human MGL from HeLa cells (Homo sapiens, UniProt Q99685)
Construct: combining endogenously expressed MGL from HeLa cells with test compounds; endogenous in cells; host or cells: HeLa cells / cell homogenates
Sequence (Q99685 whole entry): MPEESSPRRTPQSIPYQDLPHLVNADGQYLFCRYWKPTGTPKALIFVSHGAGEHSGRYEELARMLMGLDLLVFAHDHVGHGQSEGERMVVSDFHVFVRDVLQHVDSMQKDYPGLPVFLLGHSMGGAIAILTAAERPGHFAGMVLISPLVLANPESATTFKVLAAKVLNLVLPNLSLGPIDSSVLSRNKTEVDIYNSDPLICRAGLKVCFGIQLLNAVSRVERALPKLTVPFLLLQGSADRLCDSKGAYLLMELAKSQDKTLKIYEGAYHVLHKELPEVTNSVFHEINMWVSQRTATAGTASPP
methodSummary: In vitro MGL activity assay: [glycerol-1,3-3H]-oleyl glycerol cleavage by MGL from HeLa cells
Assay type: biochemical
conditionsUsed: 300 nM [Glycerol-1,3-3H]-oleyl glycerol, one hour incubation
outcomeMeasure: IC50 (nM)

Record excerpt, results attached:
{"compound": "C[C@H]1c2nn(C)c(-c3cc(F)c(F)c(F)c3)c2CCN1C(=O)c1cn(C2CC2)nc1C(F)(F)F", "IC50 [nM]": 143}
{"compound": "C[C@H]1c2nn(C)c(-c3cc(F)cc(F)c3)c2CCN1C(=O)c1cc(OCCF)ccc1F", "IC50 [nM]": 3.7}
{"compound": "CC1c2nn(C)c(-c3cccc(Cl)c3)c2CCN1C(=O)c1cnc2ccoc2c1 (racemic)", "IC50 [nM]": 130}
{"compound": "COc1cncc(C(=O)N2CCc3c(nn(C)c3-c3cc(F)c(F)c(F)c3)[C@@H]2C)c1", "IC50 [nM]": 67.5}
{"compound": "Cc1cccc(C(=O)N2CCc3c(nn(C)c3-c3ccccc3)C2)c1N", "IC50 [nM]": 1400}

A: Cn1nc2c(c1-c1ccccc1)CCN(C(=O)c1cccc3cc[nH]c13)C2
B: COc1cc(C(=O)N2CCc3c(nn(C)c3-c3cc(F)c(F)c(F)c3)[C@@H]2C)cnc1C
C: C[C@H]1c2nn(-c3ccccc3)c(-c3ccccc3)c2CCN1C(=O)c1ccc2ncccc2c1 (single isomer, unassigned)
Order each entry by recorded IC50, climbing from the minimum. Reply: labels, ordered per the request. C, B, A
